Biological target: HDAC1 enzyme (Homo sapiens, UniProt Q13547)
Construct: transducing full length HDAC1 and HDAC6 genes into Sf-9 insect cells; GST; purchased SignalChem; host or cells: Sf-9 insect cells
Sequence (Q13547 whole entry): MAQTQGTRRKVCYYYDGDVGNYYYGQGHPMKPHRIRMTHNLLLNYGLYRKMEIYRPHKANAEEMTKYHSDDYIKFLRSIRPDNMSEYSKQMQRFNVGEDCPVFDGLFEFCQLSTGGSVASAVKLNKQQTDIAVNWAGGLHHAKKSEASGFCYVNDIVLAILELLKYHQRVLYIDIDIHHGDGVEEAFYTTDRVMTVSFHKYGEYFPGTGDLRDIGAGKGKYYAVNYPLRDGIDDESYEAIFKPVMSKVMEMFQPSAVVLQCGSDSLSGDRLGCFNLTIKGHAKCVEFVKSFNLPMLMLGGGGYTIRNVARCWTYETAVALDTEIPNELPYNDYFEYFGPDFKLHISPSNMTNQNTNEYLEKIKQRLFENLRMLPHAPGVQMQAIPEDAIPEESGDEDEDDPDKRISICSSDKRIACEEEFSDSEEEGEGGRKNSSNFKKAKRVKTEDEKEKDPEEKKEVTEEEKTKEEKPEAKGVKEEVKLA
Assay: HDAC1 enzyme inhibitory assay (HDAC-Glo I/II Assay kit)
Assay type: biochemical
Conditions: wells without enzyme = 100% inhibition, read-out: HDAC1 inhibitory rate (%) (1 μM)
quantity: inhibition at 1 µM (%)
Supply the numeric figure in %, leaving out any unit text.

Examples with their reported inhibition at 1 µM follow.
Item: N#Cc1ccc(C(=O)NCC2CCCCN2C(=O)Nc2ccc(-c3noc(C(F)(F)F)n3)cc2)cc1 (stereo not shown) Test system: HDAC1 enzyme (Homo sapiens, UniProt Q13547) Read-out: inhibition at 1 µM Value: ?
28

Item: O=C(NCC1CCCCN1C(=O)Nc1ccc(-c2noc(C(F)(F)F)n2)cc1)c1ccc(C(F)(F)F)cc1 (stereo not shown) Test system: HDAC1 enzyme (Homo sapiens, UniProt Q13547) Read-out: inhibition at 1 µM Value: ?
-7

Item: O=C(NCC1CCCCN1C(=O)Nc1ccc(-c2noc(C(F)(F)F)n2)cc1)C1CCOCC1 (stereo not shown) Test system: HDAC1 enzyme (Homo sapiens, UniProt Q13547) Read-out: inhibition at 1 µM Value: ?
73

Now, please, on to the next compound.
Item: CN(C)c1cccc(C(=O)NCC2CCCCN2C(=O)Nc2ccc(-c3noc(C(F)(F)F)n3)cc2)c1 (stereo not shown) Test system: HDAC1 enzyme (Homo sapiens, UniProt Q13547) Read-out: inhibition at 1 µM Value: ?
4

* * *

Let's look at some compounds and their measured inhibition at 1 µM.
Target: HDAC6 enzyme (Homo sapiens, UniProt Q9UBN7)
Construct: transducing full length HDAC1 and HDAC6 genes into Sf-9 insect cells; GST; purchased SignalChem; host or cells: Sf-9 insect cells
Sequence (Q9UBN7 1-1215): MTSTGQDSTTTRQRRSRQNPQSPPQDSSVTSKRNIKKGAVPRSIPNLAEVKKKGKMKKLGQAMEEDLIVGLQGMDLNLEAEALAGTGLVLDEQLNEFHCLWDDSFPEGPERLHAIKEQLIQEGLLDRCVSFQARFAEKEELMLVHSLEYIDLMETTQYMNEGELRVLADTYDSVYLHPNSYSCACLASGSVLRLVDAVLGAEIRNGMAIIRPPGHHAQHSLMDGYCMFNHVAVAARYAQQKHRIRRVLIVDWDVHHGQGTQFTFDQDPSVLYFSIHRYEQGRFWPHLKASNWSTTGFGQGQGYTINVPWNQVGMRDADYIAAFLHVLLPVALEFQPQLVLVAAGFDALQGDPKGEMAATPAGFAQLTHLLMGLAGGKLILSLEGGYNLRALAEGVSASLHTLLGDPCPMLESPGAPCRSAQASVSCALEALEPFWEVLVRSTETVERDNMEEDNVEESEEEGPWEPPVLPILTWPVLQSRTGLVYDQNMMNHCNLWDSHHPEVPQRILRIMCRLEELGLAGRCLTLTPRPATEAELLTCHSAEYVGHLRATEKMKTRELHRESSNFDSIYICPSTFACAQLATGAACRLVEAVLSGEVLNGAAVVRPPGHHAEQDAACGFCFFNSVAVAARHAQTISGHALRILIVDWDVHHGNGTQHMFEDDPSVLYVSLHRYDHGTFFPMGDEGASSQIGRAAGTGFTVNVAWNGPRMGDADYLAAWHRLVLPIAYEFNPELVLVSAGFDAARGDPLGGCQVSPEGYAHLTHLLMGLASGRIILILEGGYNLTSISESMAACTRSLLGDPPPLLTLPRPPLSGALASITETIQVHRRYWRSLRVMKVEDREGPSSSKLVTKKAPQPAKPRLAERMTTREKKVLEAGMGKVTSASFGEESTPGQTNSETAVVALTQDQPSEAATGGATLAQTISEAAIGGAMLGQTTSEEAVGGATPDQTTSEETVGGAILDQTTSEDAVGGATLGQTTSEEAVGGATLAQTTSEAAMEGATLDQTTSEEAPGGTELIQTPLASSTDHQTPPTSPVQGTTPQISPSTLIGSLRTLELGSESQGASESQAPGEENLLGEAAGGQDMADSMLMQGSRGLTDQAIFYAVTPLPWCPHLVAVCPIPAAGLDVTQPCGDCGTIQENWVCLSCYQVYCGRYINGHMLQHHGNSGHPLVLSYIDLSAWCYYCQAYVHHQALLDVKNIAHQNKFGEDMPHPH
Experiment: HDAC6 enzyme inhibitory assay (HDAC-Glo I/II Assay kit)
Type: biochemical
Settings: wells without enzyme = 100% inhibition, read-out: HDAC6 inhibitory rate (%) (1 μM)
Supply the numeric figure in %, leaving out any unit text.

Item O=C(NCC1CCCCN1C(=O)Nc1ccc(-c2noc(C(F)(F)F)n2)cc1)c1ccc(-c2ccccc2)cc1 (centres unmarked) [Example 15] has what recorded inhibition at 1 µM?
-1

Item CN(C)c1ccc(C(=O)NCC2CCCCN2C(=O)Nc2ccc(-c3noc(C(F)(F)F)n3)cc2)cc1 (centres unmarked) [Example 29] has what recorded inhibition at 1 µM?
1

Item O=C(NCC1CCCCN1C(=O)Nc1ccc(-c2noc(C(F)(F)F)n2)cc1)c1ccccn1 (centres unmarked) [Example 34] has what recorded inhibition at 1 µM?
4

Item Cn1cnc(C(=O)NCC2CCCCN2C(=O)Nc2ccc(-c3noc(C(F)(F)F)n3)cc2)c1 (centres unmarked) [Example 40] has what recorded inhibition at 1 µM?
3

Item Cn1nccc1C(=O)NC[C@H]1COCCN1C(=O)Nc1ccc(-c2noc(C(F)(F)F)n2)cc1 [Example 62] has what recorded inhibition at 1 µM?
6

Next:
Item COc1cccc(C(=O)NCC2CCCCN2C(=O)Nc2ccc(-c3noc(C(F)(F)F)n3)cc2)c1 (centres unmarked) [Example 24] has what recorded inhibition at 1 µM?
3

Item CN1CCC(C(=O)NCC2CCCCN2C(=O)Nc2ccc(-c3noc(C(F)(F)F)n3)cc2)CC1 (centres unmarked) [Example 52] has what recorded inhibition at 1 µM?
6

Item Cc1ccccc1C(=O)NCC1CCCCN1C(=O)Nc1ccc(-c2noc(C(F)(F)F)n2)cc1 (centres unmarked) [Example 10] has what recorded inhibition at 1 µM?
5

* * *

Target: HDAC1 enzyme (Homo sapiens, UniProt Q13547)
Construct: transducing full length HDAC1 and HDAC6 genes into Sf-9 insect cells; GST; purchased SignalChem; host or cells: Sf-9 insect cells
Test: HDAC1 enzyme inhibitory assay (HDAC-Glo I/II Assay kit)
Type: biochemical
Conditions: wells without enzyme = 100% inhibition, read-out: HDAC1 inhibitory rate (%) (1 μM)
quantity: inhibition at 1 µM (%)
Supply the numeric figure in %, leaving out any unit text.

Examples with their reported inhibition at 1 µM follow.
Item: Cn1cnc(C(=O)NCC2CCCCN2C(=O)Nc2ccc(-c3noc(C(F)(F)F)n3)cc2)c1 (stereo not shown) [Example 40] Test system: HDAC1 enzyme (Homo sapiens, UniProt Q13547) Read-out: inhibition at 1 µM Value: ?
11

Item: O=C(NCC1CCCCN1C(=O)Nc1ccc(-c2noc(C(F)(F)F)n2)cc1)C1CC1 (stereo not shown) [Example 49] Test system: HDAC1 enzyme (Homo sapiens, UniProt Q13547) Read-out: inhibition at 1 µM Value: ?
75

Item: O=C(NCC1CCCCN1C(=O)Nc1ccc(-c2noc(C(F)(F)F)n2)cc1)c1ccccc1-c1ccccc1 (stereo not shown) [Example 13] Test system: HDAC1 enzyme (Homo sapiens, UniProt Q13547) Read-out: inhibition at 1 µM Value: ?
19

Now, please, on to the next molecule.
Item: Cc1ccccc1C(=O)NCC1CCCCN1C(=O)Nc1ccc(-c2noc(C(F)(F)F)n2)cc1 (stereo not shown) [Example 10] Test system: HDAC1 enzyme (Homo sapiens, UniProt Q13547) Read-out: inhibition at 1 µM Value: ?
4

* * *

Target: HDAC9 enzyme (Homo sapiens, UniProt Q9UKV0)
Construct: transducing full length HDAC9 gene into Sf-9 insect cells; made in house; host or cells: Sf-9 insect cells
Sequence (Q9UKV0 whole entry, species assumed): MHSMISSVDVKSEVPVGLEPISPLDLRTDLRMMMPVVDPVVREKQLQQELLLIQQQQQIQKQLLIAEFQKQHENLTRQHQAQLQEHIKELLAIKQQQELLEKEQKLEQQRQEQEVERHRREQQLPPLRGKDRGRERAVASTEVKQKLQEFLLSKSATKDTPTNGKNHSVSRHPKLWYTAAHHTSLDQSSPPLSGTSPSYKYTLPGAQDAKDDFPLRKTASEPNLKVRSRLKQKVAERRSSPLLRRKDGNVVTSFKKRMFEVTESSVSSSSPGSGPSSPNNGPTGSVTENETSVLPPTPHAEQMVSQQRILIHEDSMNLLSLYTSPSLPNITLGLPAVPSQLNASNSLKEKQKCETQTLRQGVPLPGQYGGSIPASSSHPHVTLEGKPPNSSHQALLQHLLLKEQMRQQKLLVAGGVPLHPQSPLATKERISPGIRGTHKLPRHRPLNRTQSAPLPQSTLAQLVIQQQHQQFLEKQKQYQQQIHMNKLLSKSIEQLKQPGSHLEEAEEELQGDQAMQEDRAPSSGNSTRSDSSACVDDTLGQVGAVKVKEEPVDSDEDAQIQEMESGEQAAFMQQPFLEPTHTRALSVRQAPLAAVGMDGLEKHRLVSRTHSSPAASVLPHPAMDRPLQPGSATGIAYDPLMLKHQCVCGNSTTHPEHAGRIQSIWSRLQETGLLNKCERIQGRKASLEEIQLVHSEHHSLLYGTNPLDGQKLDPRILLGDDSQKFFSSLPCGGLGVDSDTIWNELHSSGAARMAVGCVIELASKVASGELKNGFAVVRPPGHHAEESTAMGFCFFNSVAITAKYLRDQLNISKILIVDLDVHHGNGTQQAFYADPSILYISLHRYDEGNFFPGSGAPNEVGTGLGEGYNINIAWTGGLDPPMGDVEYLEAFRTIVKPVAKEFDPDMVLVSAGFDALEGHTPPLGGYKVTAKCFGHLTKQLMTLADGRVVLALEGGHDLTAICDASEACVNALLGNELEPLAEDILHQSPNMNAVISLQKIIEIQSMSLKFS
Assay: HDAC9 enzyme inhibitory assay (HDAC-Glo class IIa)
Assay type: biochemical
Conditions: wells without enzyme = 100% inhibition
quantity: HDAC9 inhibitory rate (%) (1 μM)
Supply the numeric figure in %, leaving out any unit text.

Examples with their reported HDAC9 inhibitory rate (%) (1 μM) follow.
Item O=C(NCC1CCCCN1C(=O)Nc1ccc(-c2noc(C(F)(F)F)n2)cc1)c1ccc(Cl)cc1Cl (stereo not drawn) has what recorded HDAC9 inhibitory rate (%) (1 μM)?
38

Item O=C(NCC1CCCCN1C(=O)Nc1ccc(-c2noc(C(F)(F)F)n2)cc1)C1CCCCC1 (stereo not drawn) has what recorded HDAC9 inhibitory rate (%) (1 μM)?
95

Item CC(C)(C)OC(=O)NCC1CCCCN1C(=O)Nc1ccc(-c2noc(C(F)(F)F)n2)cc1 (stereo not drawn) has what recorded HDAC9 inhibitory rate (%) (1 μM)?
87

Item CC(=O)N1CCC(C(=O)NCC2CCCCN2C(=O)Nc2ccc(-c3noc(C(F)(F)F)n3)cc2)CC1 (stereo not drawn) has what recorded HDAC9 inhibitory rate (%) (1 μM)?
94

Item O=C(NCC1CCCCN1C(=O)Nc1ccc(-c2noc(C(F)(F)F)n2)cc1)c1ccnc(O)c1 (stereo not drawn) has what recorded HDAC9 inhibitory rate (%) (1 μM)?
87

Now, please, on to the next molecule.
Item COc1ccccc1C(=O)NCC1CCCCN1C(=O)Nc1ccc(-c2noc(C(F)(F)F)n2)cc1 (stereo not drawn) has what recorded HDAC9 inhibitory rate (%) (1 μM)?
86

Attribution: patent US10406146B2
